Cited source for all entries: paper PMC9811221

# Target: PD-L1-Fc fusion protein (Invitrogen) (human, UniProt Q9NZQ7 19-238)
# Sequence (Q9NZQ7 19-238): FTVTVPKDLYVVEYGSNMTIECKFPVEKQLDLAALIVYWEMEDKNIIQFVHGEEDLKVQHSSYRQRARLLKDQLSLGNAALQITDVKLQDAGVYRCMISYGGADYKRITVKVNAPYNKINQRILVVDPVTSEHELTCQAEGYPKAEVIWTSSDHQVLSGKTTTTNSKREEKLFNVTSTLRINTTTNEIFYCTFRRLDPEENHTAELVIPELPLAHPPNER
# Assay Notes: BLI
Measurement Label: Kd (nM)

P. VHH2 (VHH) VHH: QVQLVESGGGSVQPGGSLRLSCAASGSIVGHAVQAWYRQAPGKQRDLVAQLFDNGKTNIADSVKGRFTISGDNAKNTFYLQMNNLKPEDTAIYYCAILILPSMGVPPNIYEGQGTQVTVSS
Q. VHH17 (VHH) VHH: EVQLVESGGGLVQAGGSLRLSCAASGRTFSAYAMGWFRQAPGKERELVAGISWSGGMTYYADSVKGRFTISRDNAKNMVYLQMNSLKAEDTAVYYCAGGFSAVVPDHPDEYHYWGQGTQVTVSS
Hi there! Just curious which has the higher Kd between P and Q . Your answer should be the label attached to the chosen record.
P
